- targetOfAssay: human A2A receptor (Homo sapiens, UniProt P29274)
- Sequence (P29274 whole entry): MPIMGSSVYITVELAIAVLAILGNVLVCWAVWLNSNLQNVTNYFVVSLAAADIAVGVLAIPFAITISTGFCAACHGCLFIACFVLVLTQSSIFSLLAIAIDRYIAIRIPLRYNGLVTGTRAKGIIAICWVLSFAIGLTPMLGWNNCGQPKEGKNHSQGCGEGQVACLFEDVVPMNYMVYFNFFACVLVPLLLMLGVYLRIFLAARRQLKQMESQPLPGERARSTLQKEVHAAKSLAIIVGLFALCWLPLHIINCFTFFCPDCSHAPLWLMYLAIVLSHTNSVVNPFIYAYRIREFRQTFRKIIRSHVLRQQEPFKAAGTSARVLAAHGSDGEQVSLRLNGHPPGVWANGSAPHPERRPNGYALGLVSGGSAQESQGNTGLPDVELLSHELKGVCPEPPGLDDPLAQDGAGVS
- protocolDetails: Human T cells, endogenous A2A receptor, cAMP, agonist NECA
- Format: cell-based
- measurementParameters: read-out: hTcell data, cAMP, IC50
pIC50: −log10 of the molar value.
readoutName: pIC50

Illustrative cases are given below, each with its answer.
| compound | pIC50 |
| --- | --- |
| COc1ncc(C2=CCOCC2)c2sc(NC(=O)N3CCC(N4C(=O)CCC4=O)CC3)nc12 | > 8.00 |
| COc1nc(F)c(C2CCOCC2)c2sc(NC(=O)c3ccc(C(=O)N(C)CCO)cc3)nc12 | > 8.00 |
| COc1ncc(C2=CCOCC2)c2sc(NC(=O)c3cnc(C(=O)O)[nH]3)nc12 | > 7.00 |

Could you now look at the following compound, please?
Ask: Given COc1nc(F)c(C2CCOCC2)c2sc(NC(=O)N3CCC4(CCCOC4)C3)nc12 (stereo not shown) , state its recorded pIC50.
Result: > 8.00

###

- targetOfAssay: human A1 receptor (Homo sapiens, UniProt P30542)
- Construct: expressed in transfected cells; host or cells: CHO
- Sequence (P30542 1-326): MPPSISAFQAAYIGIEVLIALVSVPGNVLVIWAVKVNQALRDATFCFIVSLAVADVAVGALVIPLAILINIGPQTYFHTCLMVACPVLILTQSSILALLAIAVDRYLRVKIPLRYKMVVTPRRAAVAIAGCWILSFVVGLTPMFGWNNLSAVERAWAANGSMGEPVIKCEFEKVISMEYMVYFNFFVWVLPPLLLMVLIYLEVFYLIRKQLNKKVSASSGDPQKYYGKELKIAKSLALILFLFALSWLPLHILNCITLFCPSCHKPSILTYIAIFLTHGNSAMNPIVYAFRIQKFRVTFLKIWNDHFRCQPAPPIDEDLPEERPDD
- protocolDetails: Functional A1 receptor activity, recombinant CHO cells, cAMP (HTRF), forskolin, agonist CPA
- Type: cell-based
- measurementParameters: recombinant CHO cells, forskolin, agonist CPA; read-out: Functional A1 receptor activity, CHO, cAMP, IC50
readoutName: IC50

Illustrative cases are given below, each with its answer.
| compound | IC50 |
| --- | --- |
| COc1ncc(C2=CCOCC2)c2sc(NC(=O)c3cnc4ccccn34)nc12 | < 1000 nM |
| COc1ncc(C2=CCOCC2)c2sc(NC(=O)N3CC[C@]4(CCCNC4)C3)nc12 | > 1000 nM |

Could you now look at the following compound, please?
Ask: Given COc1nc(F)c(N2CCOCC2)c2sc(NC(=O)N3CCC4(CCCOC4)C3)nc12 (stereo not drawn) , state its recorded IC50.
Result: > 1000 nM

###

- targetOfAssay: human A3 receptor (Homo sapiens, UniProt P0DMS8)
- Construct: expressed in transfected cells; host or cells: CHO
- Sequence (P0DMS8 whole entry): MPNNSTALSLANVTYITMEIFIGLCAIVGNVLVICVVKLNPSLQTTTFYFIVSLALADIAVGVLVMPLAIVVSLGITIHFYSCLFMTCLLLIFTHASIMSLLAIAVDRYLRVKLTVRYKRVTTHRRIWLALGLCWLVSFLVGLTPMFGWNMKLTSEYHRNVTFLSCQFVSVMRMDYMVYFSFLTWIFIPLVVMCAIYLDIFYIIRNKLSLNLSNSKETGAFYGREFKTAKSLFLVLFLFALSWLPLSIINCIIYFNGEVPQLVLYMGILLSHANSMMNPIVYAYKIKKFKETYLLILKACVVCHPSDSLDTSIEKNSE
- protocolDetails: Functional A3 receptor activity, recombinant CHO cells, cAMP (HTRF), forskolin, agonist IB-MECA
- Assay type: cell-based
- measurementParameters: recombinant CHO cells, forskolin, agonist IB-MECA, cAMP; read-out: Functional A3 receptor activity, CHO, cAMP, IC50
- Procedure: The functional activities of human A2A, A2B, A1 and A3 receptors were determined by quantification of cAMP, being the second messenger for adenosine receptors. […] Cells were seeded into 384-well plates, forskolin, test compounds and agonists (CPA for A1- and IB-MECA for A3-receptor) were added. After 30 min incubation, HTRF reagents (cAMP dynamic 2, Cis Bio) were added and the cellular cAMP levels were determined using the ENVISION (Perkin Elmer) plate reader. […]
Here, each record is paired with measured IC50 data.

Illustrative cases are given below, each with its answer.
| compound | IC50 |
| --- | --- |
| COc1ccc(-c2cnn(C)c2)c2sc(NC(=O)N3CCC(C)(O)CC3)nc12 [reference compound] | < 1000 nM |
| COc1ccc(-c2ccccc2)c2sc(NC(=O)NCCN3CCCCC3)nc12 [drawing 187, reference compound] | > 1000 nM |
| COc1cnc(N2CCOCC2)c2sc(NC(=O)N3CCC4(CCCO4)CC3)nc12 [drawing 189, reference compound] | > 1000 nM |

Ask: Given COc1cnc(N2CCOCC2)c2sc(NC(=O)N3CCC(CO)CC3)nc12 [drawing 188, reference compound] , state its recorded IC50.
Result: > 1000 nM

Ask: Given COc1ccc(N2CCOCC2)c2sc(NC(=O)N3CCCCC3)nc12 [drawing 191, reference compound] , state its recorded IC50.
Result: < 1000 nM

Ask: Given COc1cnc(N2CCOCC2)c2sc(NC(=O)N3CCOCC3)nc12 [drawing 193, reference compound] , state its recorded IC50.
Result: < 1000 nM

Ask: Given COc1ccc(-c2cnn(C)c2)c2sc(NC(=O)c3ccnc(N4CCOCC4)c3)nc12 [reference compound] , state its recorded IC50.
Result: < 1000 nM

Ask: Given COc1cnc(N2CCOCC2)c2sc(NC(=O)N3CCC4(CCN(C)C4=O)CC3)nc12 [drawing 186, reference compound] , state its recorded IC50.
Result: > 1000 nM

###

Here, each record is paired with measured pIC50 data.
- System: human T cells
- protocolDetails: hTcell data, IL-2 (human T cells, IL-2 readout; method not given)
- Format: cell-based
- measurementParameters: T-cell, compounds of the present invention
pIC50: −log10 of the molar value.

Ask: Which measured pIC50 belongs to COc1nc(F)c(C2CCOCC2)c2sc(NC(=O)c3ccc(C(=O)N(C)C)cc3)nc12 , tested on human T cells?
Result: > 8.00

Ask: Which measured pIC50 belongs to COc1nc(F)c(C2CCOCC2)c2sc(NC(=O)N3CCC4(CCOCC4)C3)nc12 , tested on human T cells?
Result: > 7.00

Ask: Which measured pIC50 belongs to COc1nc(F)c(C2CCOCC2)c2sc(NC(=O)N3CC[C@@]4(CCCOC4)C3)nc12 , tested on human T cells?
Result: > 7.00

###

- targetOfAssay: human A2B receptor (Homo sapiens, UniProt P29275)
- Construct: expressed in transfected cells; host or cells: HEK293
- Sequence (P29275 whole entry): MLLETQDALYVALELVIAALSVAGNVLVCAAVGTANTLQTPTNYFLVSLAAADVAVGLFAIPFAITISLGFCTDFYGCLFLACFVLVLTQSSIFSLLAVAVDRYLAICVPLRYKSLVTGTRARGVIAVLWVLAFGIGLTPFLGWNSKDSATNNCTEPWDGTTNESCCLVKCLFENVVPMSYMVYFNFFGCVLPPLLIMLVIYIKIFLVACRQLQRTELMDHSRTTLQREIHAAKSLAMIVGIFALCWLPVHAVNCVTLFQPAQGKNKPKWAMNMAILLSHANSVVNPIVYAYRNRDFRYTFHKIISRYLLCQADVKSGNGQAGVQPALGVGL
- protocolDetails: Functional A2B receptor activity, recombinant HEK293 cells, cAMP (HTRF), agonist NECA
- Format: cell-based
- measurementParameters: read-out: Functional A2B receptor activity, HEK293, cAMP, IC50
Here, each record is paired with measured IC50 data.

Illustrative cases are given below, each with its answer.
| molecule | IC50 |
| --- | --- |
| COc1ncc(C2CCCCC2)c2sc(NC(=O)N3CCC4(CCOCC4)C3)nc12 [Compound 62] | < 100 nM |
| COc1nc(F)c(-c2ccccc2)c2sc(NC(=O)C34CC(C(=O)N(C)CCO)(C3)C4)nc12 [Compound 101] | < 100 nM |
| COc1ncc(-c2csc(C)n2)c2sc(NC(=O)N3CCC4(CCOCC4)C3)nc12 [Compound 67] | < 100 nM |
| COc1ncc(-c2cccc(NCc3cocn3)c2)c2sc(NC(=O)N3CCC4(CCOCC4)C3)nc12 [Compound 166] | < 100 nM |
| COc1ncc(-c2ccccc2)c2sc(NC(=O)N3CC[C@@H](CN)C3)nc12 [Compound 3] | < 10 nM |
| COc1ncc(C2=CCOCC2)c2sc(NC(=O)c3ccc(C(=O)N4CCC(C)(O)CC4)cc3)nc12 [Compound 129] | < 100 nM |

Ask: Given COc1ncc([C@H]2COCCO2)c2sc(NC(=O)c3ccc(C(=O)O)cc3)nc12 [Compound 170] , state its recorded IC50.
Result: < 100 nM

Ask: Given COc1ncc(C2=CCOCC2)c2sc(NC(=O)c3c[nH]c(-c4cccnc4)n3)nc12 [Compound 140] , state its recorded IC50.
Result: < 100 nM

Ask: Given COc1ncc(C2=CCOCC2)c2sc(NC(=O)c3ccc(-n4ccnn4)cc3)nc12 [Compound 71] , state its recorded IC50.
Result: < 10 nM

Ask: Given COc1ncc(-c2cccc(O)c2)c2sc(NC(=O)N3CCC4(CCOCC4)C3)nc12 [Compound 153] , state its recorded IC50.
Result: < 10 nM

Ask: Given COc1ncc(-c2ccccc2)c2sc(NC(=O)c3c[nH]cn3)nc12 [Compound 60] , state its recorded IC50.
Result: < 10 nM

Ask: Given COc1ncc(C2=CCC(OC)CC2)c2sc(NC(=O)N3CC[C@]4(CCCOC4)C3)nc12 (stereo partly drawn) [Compound 70] , state its recorded IC50.
Result: < 1000 nM

Ask: Given COc1nc(F)c(C2CCOCC2)c2sc(NC(=O)N3CC[C@]4(CCCOC4)C3)nc12 [Compound 34] , state its recorded IC50.
Result: < 100 nM

Ask: Given COc1cccc(-c2cnc(OC)c3nc(NC(=O)N4CCC5(CCOCC5)C4)sc23)c1 [Compound 54] , state its recorded IC50.
Result: < 10 nM

Ask: Given COc1ncc(-c2ccc(C)s2)c2sc(NC(=O)N3CCC4(CCOCC4)C3)nc12 [Compound 113] , state its recorded IC50.
Result: < 100 nM

Ask: Given COc1ncc(C2CCC(F)(F)CC2)c2sc(NC(=O)N3CCC4(CCOCC4)C3)nc12 [Compound 111] , state its recorded IC50.
Result: < 100 nM

Ask: Given COc1ncc(-c2cnn(CC(F)F)c2)c2sc(NC(=O)N3CCC4(CCOCC4)C3)nc12 [Compound 74] , state its recorded IC50.
Result: < 100 nM

Ask: Given COc1ncc(-c2ccoc2)c2sc(NC(=O)N3CCC4(CCOCC4)C3)nc12 [Compound 52] , state its recorded IC50.
Result: < 10 nM

Ask: Given COc1ncc(C2=CCOCC2)c2sc(NC(=O)N3CC[C@]4(CCCOC4)C3)nc12 [Compound 24] , state its recorded IC50.
Result: < 100 nM

Ask: Given COc1ncc(-c2ccco2)c2sc(NC(=O)N3CCC4(CCOCC4)C3)nc12 [Compound 48] , state its recorded IC50.
Result: < 10 nM
